target.or.system: purified recombinant human PARP (Homo sapiens, UniProt P09874)
Construct: purchased Trevigan (Gaithersburg, Md.)
Sequence (P09874 whole entry): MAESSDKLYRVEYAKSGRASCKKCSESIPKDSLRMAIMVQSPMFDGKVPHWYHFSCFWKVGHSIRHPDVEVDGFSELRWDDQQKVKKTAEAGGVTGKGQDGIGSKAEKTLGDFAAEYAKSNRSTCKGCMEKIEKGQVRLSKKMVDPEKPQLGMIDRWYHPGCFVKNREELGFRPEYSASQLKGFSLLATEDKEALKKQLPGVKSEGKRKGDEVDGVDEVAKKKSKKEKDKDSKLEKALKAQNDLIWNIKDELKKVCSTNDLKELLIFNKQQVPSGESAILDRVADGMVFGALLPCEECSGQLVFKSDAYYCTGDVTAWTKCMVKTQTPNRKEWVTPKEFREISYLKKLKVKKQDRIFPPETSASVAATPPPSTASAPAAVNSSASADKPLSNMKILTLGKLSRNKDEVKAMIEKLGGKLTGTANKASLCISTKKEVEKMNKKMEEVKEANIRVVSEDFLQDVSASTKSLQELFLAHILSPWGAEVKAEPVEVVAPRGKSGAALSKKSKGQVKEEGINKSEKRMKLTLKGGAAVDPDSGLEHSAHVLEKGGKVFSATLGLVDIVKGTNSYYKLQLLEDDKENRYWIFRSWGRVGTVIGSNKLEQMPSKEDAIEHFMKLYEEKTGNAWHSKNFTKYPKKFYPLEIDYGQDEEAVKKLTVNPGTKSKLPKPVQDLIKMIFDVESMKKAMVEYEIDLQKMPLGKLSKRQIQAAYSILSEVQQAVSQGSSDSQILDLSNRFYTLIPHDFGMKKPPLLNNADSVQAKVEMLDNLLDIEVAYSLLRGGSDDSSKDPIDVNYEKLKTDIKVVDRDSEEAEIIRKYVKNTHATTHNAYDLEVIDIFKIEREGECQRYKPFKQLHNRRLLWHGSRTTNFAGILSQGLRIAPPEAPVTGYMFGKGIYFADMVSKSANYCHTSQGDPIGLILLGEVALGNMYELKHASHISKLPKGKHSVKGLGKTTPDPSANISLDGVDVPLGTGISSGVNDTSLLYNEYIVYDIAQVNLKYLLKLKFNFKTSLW
assay.details: PARP enzyme assay (IC50)
Type: biochemical
assay.conditions: approximate IC50 values, [3H]NAD, read-out: IC50
Assign labels as follows, please: t for IC50 below 0.3 µM; f for IC50 equal to or exceeding 0.3 µM.

Identify whether the compound O=C1CCN(Cc2nc3cccc4c3n2CCNC4=O)CC1 records IC50 below 0.3 µM.
f

In plain terms, does COc1ccc(N(C)Cc2nc3cccc4c3n2CCNC4=O)cc1 come in under 0.3 µM for IC50?
t

Lab log: compare recorded IC50 with 0.3 µM; is it strictly lower for CN(C)CCN(C)Cc1nc2cccc3c2n1CCNC3=O ?
t

Take the compound O=C1NCCn2c(-c3cc(O)c(O)c(O)c3)nc3cccc1c32 and say whether its IC50 is less than 0.3 µM.
f

Hello, is IC50 of the following compound strictly smaller than 0.3 µM? CCCCCCN(CCCCCC)Cc1nc2cccc3c2n1CCNC3=O
f

IC50 under 0.3 µM? Item: CN(C)CCNC(=O)c1cccc(-c2nc3cccc4c3n2CCNC4=O)c1
t

is_below(IC50, 0.3 µM) for O=C1NCCn2c(COCc3ccccc3)nc3cccc1c32 ?
f

Field: below-cutoff. Rule: recorded IC50 strictly less than 0.3 µM. Subject: COC(=O)C1CN(Cc2nc3cccc4c3n2CCNC4=O)CCC1=O (centres unmarked)
f

Say whether its IC50 is strictly beneath 0.3 µM. Entry: CC(Cc1nc2cccc3c2n1CCNC3=O)c1ccccc1 (centres unmarked)
t

# strict comparison: is reported IC50 < 0.3 µM? input = COc1ccc2[nH]c(=O)c3ccccc3c2n1
t

Dear colleague, could you confirm whether IC50 of CN(C)CCCN(C)C(=O)c1cccc(-c2nc3cccc4c3n2CCNC4=O)c1 falls below 0.3 µM? Thanks.
t

Is IC50 strictly under 0.3 µM for the entry CN1CCN(CC2=NNC(=O)c3cccc4[nH]cc2c34)CC1 ?
t

Is IC50 strictly under 0.3 µM for the entry COCc1nc2cccc3c2n1CCNC3=O ?
t

Check if IC50 falls below 0.3 µM for O=C1NCCn2c(-c3ccc(-c4ccc(Cl)cc4)o3)nc3cccc1c32 .
f

Answer whether the compound O=C1NCCn2ccc3cccc1c32 has IC50 strictly less than 0.3 µM
f

is_below(IC50, 0.3 µM) for O=C(O)c1cccc(-c2nc3cccc4c3n2CCNC4=O)c1 ?
t

Quick check: IC50 of CN(C)CCCOc1ccc(-c2nc3cccc4c3n2CCNC4=O)cc1 under 0.3 µM?
t

Consider the compound Cn1c(-c2ccccc2)c2c3c(cccc31)C(=O)NN=C2 . Is its IC50 strictly less than 0.3 µM?
t

Consider O=C1NN=Cc2c[nH]c3cccc1c23 . Does its IC50 lie strictly below 0.3 µM?
t

Determine whether this compound shows IC50 lower than 0.3 µM (ties excluded): O=C1NCCn2c(CN3CCN(Cc4ccc5c(c4)OCO5)CC3)nc3cccc1c32
t

Please check: IC50 for O=C1NCC(c2ccccc2)c2c[nH]c3cccc1c23 (centres unmarked) , strictly under 0.3 µM or not?
t

hey, is IC50 for Cn1cc(-c2nc3cccc4c3n2CCNC4=O)c2ccccc21 lower than 0.3 µM or not?
t

Hello, I'm reviewing records and need to know if IC50 of O=C1NCCn2c(-c3ccc(Br)cc3)nc3cccc1c32 is below 0.3 µM. Could you check?
t

Say whether its IC50 is strictly beneath 0.3 µM. Entry: O=C1NCCn2c(-c3cccc(Cl)c3)nc3cccc1c32
t

Does this compound meet the criterion IC50 < 0.3 µM? CN(C)CCN(Cc1ccccc1)Cc1nc2cccc3c2n1CCNC3=O
t

Strictly below 0.3 µM: is that where IC50 of O=C1NCCn2c(-c3ccc(Br)s3)nc3cccc1c32 sits?
t

Regarding COc1cc2c(cc1OC)CN(Cc1nc3cccc4c3n1CCNC4=O)CC2 , kindly confirm whether its IC50 is beneath 0.3 µM.
f
